Target: UniProtKB P09874
Sequence (P09874 whole entry): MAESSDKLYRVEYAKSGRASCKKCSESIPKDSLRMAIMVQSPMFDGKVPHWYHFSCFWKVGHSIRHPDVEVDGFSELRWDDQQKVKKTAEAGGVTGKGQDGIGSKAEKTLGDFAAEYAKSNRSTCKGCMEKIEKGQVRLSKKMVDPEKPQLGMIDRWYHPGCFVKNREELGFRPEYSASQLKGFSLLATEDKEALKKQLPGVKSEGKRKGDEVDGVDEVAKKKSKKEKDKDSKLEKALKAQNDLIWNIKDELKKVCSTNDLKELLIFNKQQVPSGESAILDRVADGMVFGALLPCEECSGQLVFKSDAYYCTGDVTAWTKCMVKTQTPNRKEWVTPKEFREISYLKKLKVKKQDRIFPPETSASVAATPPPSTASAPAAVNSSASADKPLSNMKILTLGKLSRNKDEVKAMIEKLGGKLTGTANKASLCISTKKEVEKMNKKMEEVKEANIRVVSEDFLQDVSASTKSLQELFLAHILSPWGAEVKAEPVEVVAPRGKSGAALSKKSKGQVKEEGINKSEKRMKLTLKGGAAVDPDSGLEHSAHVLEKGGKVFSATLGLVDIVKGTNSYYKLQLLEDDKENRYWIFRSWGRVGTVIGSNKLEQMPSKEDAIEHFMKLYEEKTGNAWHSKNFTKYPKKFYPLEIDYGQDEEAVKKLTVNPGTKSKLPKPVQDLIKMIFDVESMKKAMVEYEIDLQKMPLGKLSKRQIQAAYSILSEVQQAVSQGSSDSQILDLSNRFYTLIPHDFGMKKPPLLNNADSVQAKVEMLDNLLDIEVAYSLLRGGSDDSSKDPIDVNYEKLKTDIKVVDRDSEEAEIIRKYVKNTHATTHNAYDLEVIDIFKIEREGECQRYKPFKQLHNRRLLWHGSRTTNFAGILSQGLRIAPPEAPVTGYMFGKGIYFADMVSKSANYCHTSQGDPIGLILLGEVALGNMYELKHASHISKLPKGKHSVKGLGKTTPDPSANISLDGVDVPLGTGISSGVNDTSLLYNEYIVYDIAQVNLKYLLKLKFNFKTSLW
Assay: PARP1 chemiluminescent assay
Assay type: biochemical
Conditions: recombinant PARP1 enzyme activity, chemiluminescence
Please respond with reported IC50 for every item in the list.

# return recorded IC50 for entry "CCN1Cc2ccc(CN3CCN(c4ccc(C(=O)NC)nc4)CC3)cc2NC1=O"
1 to 10 nM

# return recorded IC50 for entry "CCn1c(=O)[nH]c2cc(CN3CCN(c4ccc(C(=O)NC(C)C)nc4F)CC3)ccc2c1=O"
1 to 10 nM

# return recorded IC50 for entry "CCNC(=O)c1ccc(N2CCN(Cc3cc(F)c4c(=O)n(CC)c(=O)[nH]c4c3)CC2)c(Cl)n1"
1 to 10 nM

# return recorded IC50 for entry "CCn1c(=O)[nH]c2cc(CN3CCN(c4ccc(C(=O)NC)nc4C)CC3)ccc2c1=O"
1 to 10 nM

# return recorded IC50 for entry "CCn1c(=O)[nH]c2cc(CN3CCN(c4ccc(C(=O)NC)nc4)CC3)ccc2c1=O"
1 to 10 nM

# return recorded IC50 for entry "CCNC(=O)c1ccc(N2CCN(Cc3ccc4c(=O)n(CC)c(=O)[nH]c4c3)CC2)c(C)n1"
1 to 10 nM

# return recorded IC50 for entry "CCn1c(=O)[nH]c2cc(CN3CCN(c4ccc(C(=O)NC)nc4F)CC3)c(F)cc2c1=O"
1 to 10 nM

# return recorded IC50 for entry "CCN1Cc2ccc(CN3CCN(c4ccc(C(=O)NC)nc4C)CC3)cc2NC1=O"
1 to 10 nM
